system: RPMI-8226; test: NCI tumour cell line growth inhibition, 48 h
Activity calls are given as the source filed them. Cut-off read from the data, not from the text of the source: active = GI50 up to about 1.1 µM and inactive = higher.
Classes used: YES = active, NO = inactive

- COMPOUND: "CCCC(O)c1cn(-c2cccc(S(=O)(=O)O)c2)nn1 (centres undefined)"
  GROUP_LABEL: "NO"
- COMPOUND: "CC(=O)c1c[nH]cc1CO"
  GROUP_LABEL: "NO"
- COMPOUND: "C[n+]1c2ccccc2c(CNCC(=O)O)c2ccccc21"
  GROUP_LABEL: "YES"
- COMPOUND: "NC(=O)c1cc2ccccc2c(/N=N/c2ccccc2)c1O"
  GROUP_LABEL: "NO"
